System: P-Akt (S473)
Assay: Cell based AlphaLISA assay, inhibition of P-Akt (S473) (mTORC2 substrate phosphorylation) in MDA-MB-468 cells
Conditions: Homo sapiens, MDA-MB-468, 4 h, AlphaLISA, two to four hours at 37° C., read-out: pIC50 for Inhibition of mTORC1 and mTORC2 Substrate Phosphorylation, p-AKT 1/2/3 -(S473) (converted)
Measure Name: IC50

INSERT INTO measurements (compound, assay_result) VALUES
  ('CO[C@@H]1C[C@H](C[C@@H](C)[C@@H]2CC(=O)[C@H](C)/C=C(\C)[C@@H](O)[C@@H](OC)C(=O)[C@H](C)C[C@H](C)/C=C/C=C/C=C(\C)[C@@H](c3ccco3)C[C@@H]3CC[C@@H](C)[C@@](O)(O3)C(=O)C(=O)N3CCCC[C@H]3C(=O)O2)CC[C@H]1OCCCCc1cn(CCOCCOCCOCCOCCOCCOCCOCCOCCC(=O)NCCCCn2nc(-c3cc4cc(O)ccc4[nH]3)c3c(N)ncnc32)nn1 [Example 76]', '3.16 to 31.6 nM'),
  ('CO[C@H]1C[C@@H]2CC[C@@H](C)[C@@](O)(O2)C(=O)C(=O)N2CCCC[C@H]2C(=O)O[C@H]([C@H](C)C[C@@H]2CC[C@@H](OCCOCc3cn(CCOCCOCCOCCOCCOCCOCCC(=O)N4CC(Cn5nc(-c6ccc7oc(N)nc7c6)c6c(N)ncnc65)C4)nn3)[C@H](OC)C2)CC(=O)[C@H](C)/C=C(\C)[C@@H](O)[C@@H](OC)C(=O)[C@H](C)C[C@H](C)/C=C/C=C/C=C/1C [Example 57]', '3.16 to 31.6 nM');

Please tell me: IC50 of CO[C@H]1C[C@@H]2CC[C@@H](C)[C@@](O)(O2)C(=O)C(=O)N2CCCC[C@H]2C(=O)O[C@H]([C@H](C)C[C@@H]2CC[C@@H](O)[C@H](OC)C2)C[C@@H](OC)[C@H](C)/C=C(\C)[C@@H](O)[C@@H](OC)C(=NOCc2cn(CCOCCOCCOCCOCCOCCOCCOCCOCCC(=O)NCCCCn3nc(-c4ccc5oc(N)nc5c4)c4c(N)ncnc43)nn2)[C@H](C)C[C@H](C)/C=C/C=C/C=C/1C [Example 17] , system P-Akt (S473)?
31.6 to 1000 nM

###

Test system: P-Akt (S473)
Assay: Cell based AlphaLISA assay, inhibition of P-Akt (S473) (mTORC2 substrate phosphorylation) in MDA-MB-468 cells
Details: Homo sapiens, 4 h, AlphaLISA, two to four hours at 37° C., read-out: pIC50 for Inhibition of mTORC1 and mTORC2 Substrate Phosphorylation, p-AKT 1/2/3 -(S473) (converted)
Catalogue of IC50 values

Look over these answered cases.
INSERT INTO measurements (smiles_representation, assay_result) VALUES
  ('CO[C@H]1C[C@@H]2CC[C@@H](C)[C@@](O)(O2)C(=O)C(=O)N2CCCC[C@H]2C(=O)O[C@H]([C@H](C)C[C@@H]2CC[C@@H](OCCCCc3cn(CCOCCOCCOCCOCCOCCOCCOCCOCCC(=O)N4CCc5cc(Cn6nc(-c7ccc8oc(N)nc8c7)c7c(N)ncnc76)ccc5C4)nn3)[C@H](OC)C2)CC(=O)[C@H](C)/C=C(\C)[C@@H](O)[C@@H](OC)C(=O)[C@H](C)C[C@H](C)/C=C/C=C/C=C/1C', '3.16 to 31.6 nM'),
  ('CO[C@H]1C[C@@H]2CC[C@@H](C)[C@@](O)(O2)C(=O)C(=O)N2CCCC[C@H]2C(=O)O[C@H]([C@H](C)C[C@@H]2CC[C@@H](OCCCCc3cn(CCOCCOCCOCCOCCOCCOCCOCCOCCC(=O)NCCCCn4nc(-c5cnc6[nH]ccc6c5)c5c(N)ncnc54)nn3)[C@H](OC)C2)CC(=O)[C@H](C)/C=C(\C)[C@@H](O)[C@@H](OC)C(=O)[C@H](C)C[C@H](C)/C=C/C=C/C=C/1C', '3.16 to 31.6 nM');

Consider now this further compound.
Please tell me: IC50 of `CO[C@H]1C[C@@H]2CC[C@@H](C)[C@@](O)(O2)C(=O)C(=O)N2CCCC[C@H]2C(=O)O[C@H]([C@H](C)C[C@@H]2CC[C@@H](OCCCCc3cn(CCOCCOCCOCCOCCOCCOCCOCCOCCC(=O)N4CCc5cc(Cn6nc(-c7ccc8oc(N)nc8c7)c7c(N)ncnc76)ccc5C4)nn3)[C@H](OC)C2)C[C@@H](OC)[C@H](C)/C=C(\C)[C@@H](O)[C@@H](OC)C(=O)[C@H](C)C[C@H](C)/C=C/C=C/C=C/1C` , system P-Akt (S473)?
31.6 to 1000 nM
